# Test system: TC-YIK (Other Solid Carcinomas);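 also: after 72 h of two-drug dosing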
# measurement description: Bliss excess, mean over the matrix (fraction); higher = more synergy
Please go through the items and note down their Bliss excess.

Reference set (4 entries):
{"compound": "COc1nnc2ccc(N3CCC(c4ccc(OCCN5CCN(C)C(=O)[C@H]5C)cc4)CC3)nn12 [AZD5153] + CCN(CCO)CCCOc1ccc2c(Nc3cc(CC(=O)Nc4cccc(F)c4)[nH]n3)ncnc2c1 [AZD2811] (first compound max 1 µM, 7x7, partner max 1 µM)", "Bliss excess": -0.106}
{"compound": "Cn1cnc2c(F)c(Nc3ccc(Br)cc3Cl)c(C(=O)NOCCO)cc21 [Selumetinib] + C=CCn1c(=O)c2cnc(Nc3ccc(N4CCN(C)CC4)cc3)nc2n1-c1cccc(C(C)(C)O)n1 [AZD1775] (first compound max 10 µM, partner max 1 µM)", "Bliss excess": -0.03}
{"compound": "N#Cc1cnc(Nc2cc(NC[C@H]3CNCCO3)c(C(F)(F)F)cn2)cn1 [SRA737] + O=c1[nH]cc(F)c(=O)[nH]1 [5-Fluorouracil] (first compound max 10 µM, 7x7, partner max 20 µM)", "Bliss excess": 0.0119}
{"compound": "NC1(C(=O)N[C@@H](CCO)c2ccc(Cl)cc2)CCN(c2ncnc3[nH]ccc23)CC1 [Capivasertib] + C[C@@H]1COCCN1C2=NC(=NC(=C2)C3(CC3)[S@](=N)(=O)C)C4=C5C=CNC5=NC=C4 [AZD6738] (first compound max 10 µM, 7x7, partner max 10 µM)", "Bliss excess": 0.0091}

Kindly state the measured Bliss excess obtained for CS(=O)(=O)CCNCc1ccc(-c2ccc3ncnc(Nc4ccc(OCc5cccc(F)c5)c(Cl)c4)c3c2)o1 [Lapatinib] + C[C@@H](Oc1cc(-c2cnn(C3CCNCC3)c2)cnc1N)c1c(Cl)ccc(F)c1Cl [Crizotinib] (first compound max 10 µM, 7x7, partner max 10 µM) with TC-YIK (Other Solid Carcinomas). -0.0828
